Taken from ChEMBL document CHEMBL1201862.

Answer each item with its documented GI50.
Test system: OVCAR-5
Assay: NCI tumour cell line growth inhibition, 48 h
Calls of active or inactive are those of the source. Cut-off read from the data, not from the text of the source: active = GI50 up to about 1.1 µM and inactive = higher.

Record excerpt, results attached:
>  <compound>
C=C[C@]1(O)CCC[C@]2(C)C(=O)CCC12C (stereo partly specified)

>  <testedTarget>
OVCAR-5

>  <GI50>
> 100 µM (inactive)

$$$$
>  <compound>
CC1=CC(=O)CC2(C)CC[C@@H]3C[C@]12OC3(C)C (stereo partly specified)

>  <testedTarget>
OVCAR-5

>  <GI50>
> 100 µM (inactive)

$$$$
>  <compound>
COc1ccc2c(c1)OC(c1ccccc1O)CC2=O (stereo unspecified)

>  <testedTarget>
OVCAR-5

>  <GI50>
> 100 µM (inactive)

$$$$

For each of the compounds below, note its GI50.
1. N#Cc1cc([N+](=O)[O-])ccc1NC(=O)/C(=N\NC(=O)c1ccncc1)C(c1cnc2ccc([N+](=O)[O-])cc2n1)[N+](=O)[O-] (stereo unspecified)
2. O=C(/C(=C/c1ccc(Cl)cc1)c1ccccc1)c1ccccc1
3. CC(=O)/C(=N\O)C(=O)Nc1ccc(Cl)cc1Cl

A)
1. 9.4 µM (inactive)
2. 22.6 µM (inactive)
3. > 100 µM (inactive)

---

Tested on: SF-539
Assay: NCI tumour cell line growth inhibition, 48 h
Calls of active or inactive are those of the source. Cut-off read from the data, not from the text of the source: active = GI50 up to about 1.1 µM and inactive = higher.
propertyLabel: GI50

Worked cases, answers included:
>  <compound>
COc1ccc(/C=N\N2CC(=O)N3C4C=CC(CC4)N3C2=O)cc1 (stereo not given)

>  <propertyLabel>
GI50

>  <endpointResult>
> 100 µM (inactive)

$$$$
>  <compound>
Cc1cc2nc(-c3c(F)cccc3F)n(Cc3c(F)cccc3F)c2cc1C

>  <propertyLabel>
GI50

>  <endpointResult>
18.5 µM (inactive)

$$$$
>  <compound>
O=C(O)C1C2CC3CC2CC31 (stereo not given)

>  <propertyLabel>
GI50

>  <endpointResult>
> 100 µM (inactive)

$$$$
>  <compound>
Cn1c(=O)n(-c2c3ccccc3c(Cl)c3ccccc23)n(C(C)(C)C)c1=O

>  <propertyLabel>
GI50

>  <endpointResult>
43.6 µM (inactive)

$$$$
>  <compound>
Clc1ccc(Oc2ccc(/N=C/c3ccc(Cl)cc3Cl)cc2Cl)cc1

>  <propertyLabel>
GI50

>  <endpointResult>
23.6 µM (inactive)

$$$$

Give GI50 for each listed item.
1. CN(C)/C=C/C(=O)c1cccc(C(=O)/C=C/N(C)C)n1
2. O=C(SCc1cccc2ccccc12)c1ccc(Cl)cc1
3. Nc1ccc(Oc2ccc(C3(c4ccc(Oc5ccc(N)c(O)c5)cc4)C4CC5C6CC7CC5C3C(C7)C6C4)cc2)cc1O
4. O=C(OCc1ccccc1)N1CCNCCNCCN(C(=O)OCc2ccccc2)CCNCC1
5. CCn1c(O)c(C(=O)NC(C)c2ccc([N+](=O)[O-])cc2)c(=O)n(CC)c1=S (stereo not given)

A)
1: > 100 µM (inactive); 2: > 100 µM (inactive); 3: 2.61 µM (inactive); 4: 18.5 µM (inactive); 5: 3.93 µM (inactive)

---

System: NCI-H522
Test: NCI tumour cell line growth inhibition, 48 h
Active and inactive are the calls of the source. No stated cut-off is given here; in the data, active = GI50 up to about 1.1 µM and inactive = higher.
Permitted responses: active, inactive

Below, 3 compounds whose answers are already recorded.
>  <compound>
CCCNC1=Nc2ccccc2NC(C)C1 (stereo not drawn)

>  <cat>
inactive

$$$$
>  <compound>
COC(=O)CCn1cnc2c(SC)ncnc21

>  <cat>
inactive

$$$$
>  <compound>
COC(=O)N[C@@H]1C[C@H]2CC[C@]1(O[Si](C(C)C)(C(C)C)C(C)C)C(=O)C2

>  <cat>
inactive

$$$$

Q) Check the results log: what was the call for CCOC(=O)C(=O)N/N=C1\C(=O)Nc2ccccc21 ?
A) inactive

Q) What did the test return for O=c1oc2ccccc2c(Nc2ccc3c(c2)Sc2ccccc2O3)c1[N+](=O)[O-] ?
A) inactive

Q) Can you look up the reported call for O=c1c2ccccc2nc(-c2cccc(Cl)c2)n1NCC1(O)OCC(O)C(O)C1O (stereo not drawn) for me?
A) inactive

Q) Could you kindly confirm the outcome this assay logged for CCCC1(N2C(=O)c3ccc4c5c(ccc(c35)C2=O)N(C2(CCC)CCCCC2)C4=O)CCCCC1 ?
A) inactive

Q) Please indicate how the test categorized CCC1c2[nH]c3ccccc3c2C[C@H]2C(=O)N3CCC[C@H]3C(=O)N12 (stereo partly drawn) .
A) inactive

Q) What outcome does the record of this test show for CCOC(=O)CCC(NC(=O)OCc1ccccc1)C(=O)NNC(=O)OC(C)(C)C (stereo not drawn) ?
A) inactive

Q) What outcome does the record of this test show for CN(C)CC1CCCC/C1=N\OC(=O)c1ccccc1 (stereo not drawn) ?
A) inactive

Q) What did this assay record as the result for COc1cc(C(C)c2cc3c(cc2OCCOCCOc2cc4c(cc2C(C)c2cc(OC)c(OC)c(OC)c2)OCO4)OCO3)cc(OC)c1OC (stereo not drawn) ?
A) inactive

Q) Query: recorded result category for CCOC(=O)C(C)c1nc2c(Cl)c3ncccc3cc2[nH]c1=O (stereo not drawn) in this test
A) inactive

Q) Tell me the assay call for CCOC(=O)c1sc2nc(SC)nc(N3CCCCC3)c2c1N please.
A) inactive

Q) Called result for O=C(O)CCCc1ccc2c(c1)CC1(C2)Cc2ccc(CCCC(=O)O)cc2C1
A) inactive

Q) What did the test return for Cc1ccc2c(O)cc(-c3cc4ccccc4s3)nc2n1 ?
A) inactive

Q) Please let me know the test result on file for O=C1/C(=C/c2cccs2)N=C(c2ccccc2)N1c1nc2ccccc2s1 .
A) inactive

Q) Field: outcome | Entry: COC(=O)Nc1nc2cc(S(=O)(=O)Nc3ccccn3)ccc2[nH]1
A) inactive

Q) Record request — test call for CC(C)CCNc1ncnc2[nH]ncc12
A) inactive

Q) Outcome? CCOC(=O)C(=C(SC)SC)c1nn2c(=O)cc(C)nc2s1
A) inactive

Q) Each compound tested received a call. Report the one for ON(Cc1ccccc1)C(=S)c1ccccc1 .
A) active

Q) Name the outcome recorded for O=c1c2cc(I)ccc2nc(-c2cccs2)n1O in the assay.
A) inactive
